- TEST_DESCRIPTION: Cytotoxic effect on mammalian cells, Vero
- Assay type: cell-based
- STUDY_CONDITIONS: African green monkey, Vero cells; 50 µM
READOUT_TYPE: cytotoxicity at 50 µM (%)

| SMILES | OUTPUT_UNIT | VALUE_REPORTED |
| --- | --- | --- |
| C=C/C(C)=C/CC=C(C)C | % | 1.14 |

====

- TEST_DESCRIPTION: Cytotoxic effect on mammalian cells (MTT, 72 h), RAW 264.7
- Type: cell-based
- STUDY_CONDITIONS: mouse, RAW 264.7 macrophages, pH 7.2, 200 µM

| SMILES | OUTPUT_UNIT | cytotoxicity at 72 h, 200 µM |
| --- | --- | --- |
| C=C/C(C)=C/CC=C(C)C | % | 56.6 |
